Source: patent US20250326839A1

Target: T1, human TREM2 (human, UniProt Q9NZC2 19-174, limits assumed)
T1 construct: also called triggering receptor expressed on myeloid cells 2
T1 sequence: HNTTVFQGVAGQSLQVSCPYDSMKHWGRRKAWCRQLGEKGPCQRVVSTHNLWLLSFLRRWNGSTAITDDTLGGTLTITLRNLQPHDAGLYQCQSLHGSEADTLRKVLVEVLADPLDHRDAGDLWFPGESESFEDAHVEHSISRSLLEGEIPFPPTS
Assay: 2nd screen, 10 nM
Examples of binders with documented Binding Signal follow.

binder	Binding Signal
V64 (antibody, V domains shown, also called 6E7 variant V64) VH: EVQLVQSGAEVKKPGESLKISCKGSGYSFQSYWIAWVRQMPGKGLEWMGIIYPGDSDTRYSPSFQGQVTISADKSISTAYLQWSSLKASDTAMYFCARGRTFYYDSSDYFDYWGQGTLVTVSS VL: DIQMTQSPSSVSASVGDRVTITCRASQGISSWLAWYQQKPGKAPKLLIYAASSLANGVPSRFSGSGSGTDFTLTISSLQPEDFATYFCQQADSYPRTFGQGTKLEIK	5.48 fold over 6E7 parental antibody
V86 (antibody, V domains shown, also called 6E7 variant V86) VH: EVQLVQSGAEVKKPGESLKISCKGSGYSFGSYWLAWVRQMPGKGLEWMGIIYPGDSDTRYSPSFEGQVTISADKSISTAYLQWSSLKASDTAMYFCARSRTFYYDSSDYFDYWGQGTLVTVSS VL: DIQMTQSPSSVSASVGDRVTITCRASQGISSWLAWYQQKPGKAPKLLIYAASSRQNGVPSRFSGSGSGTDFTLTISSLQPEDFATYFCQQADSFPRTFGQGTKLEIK	5.02 fold over 6E7 parental antibody

Now, please, on to the next binder.
stdin: So what does the record say about Binding Signal for V75 (antibody, V domains shown, also called 6E7 variant V75) VH: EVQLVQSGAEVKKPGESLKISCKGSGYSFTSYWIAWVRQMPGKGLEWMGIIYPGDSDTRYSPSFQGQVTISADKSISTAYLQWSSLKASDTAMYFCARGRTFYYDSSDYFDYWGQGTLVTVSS VL: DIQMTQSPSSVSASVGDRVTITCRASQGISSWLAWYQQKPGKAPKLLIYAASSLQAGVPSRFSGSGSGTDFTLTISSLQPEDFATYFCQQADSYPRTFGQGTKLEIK ?
stdout: 4.52 fold over 6E7 parental antibody
